Target: Poly [ADP-ribose] polymerase 1 (Homo sapiens)
Sequence (P09874 whole entry): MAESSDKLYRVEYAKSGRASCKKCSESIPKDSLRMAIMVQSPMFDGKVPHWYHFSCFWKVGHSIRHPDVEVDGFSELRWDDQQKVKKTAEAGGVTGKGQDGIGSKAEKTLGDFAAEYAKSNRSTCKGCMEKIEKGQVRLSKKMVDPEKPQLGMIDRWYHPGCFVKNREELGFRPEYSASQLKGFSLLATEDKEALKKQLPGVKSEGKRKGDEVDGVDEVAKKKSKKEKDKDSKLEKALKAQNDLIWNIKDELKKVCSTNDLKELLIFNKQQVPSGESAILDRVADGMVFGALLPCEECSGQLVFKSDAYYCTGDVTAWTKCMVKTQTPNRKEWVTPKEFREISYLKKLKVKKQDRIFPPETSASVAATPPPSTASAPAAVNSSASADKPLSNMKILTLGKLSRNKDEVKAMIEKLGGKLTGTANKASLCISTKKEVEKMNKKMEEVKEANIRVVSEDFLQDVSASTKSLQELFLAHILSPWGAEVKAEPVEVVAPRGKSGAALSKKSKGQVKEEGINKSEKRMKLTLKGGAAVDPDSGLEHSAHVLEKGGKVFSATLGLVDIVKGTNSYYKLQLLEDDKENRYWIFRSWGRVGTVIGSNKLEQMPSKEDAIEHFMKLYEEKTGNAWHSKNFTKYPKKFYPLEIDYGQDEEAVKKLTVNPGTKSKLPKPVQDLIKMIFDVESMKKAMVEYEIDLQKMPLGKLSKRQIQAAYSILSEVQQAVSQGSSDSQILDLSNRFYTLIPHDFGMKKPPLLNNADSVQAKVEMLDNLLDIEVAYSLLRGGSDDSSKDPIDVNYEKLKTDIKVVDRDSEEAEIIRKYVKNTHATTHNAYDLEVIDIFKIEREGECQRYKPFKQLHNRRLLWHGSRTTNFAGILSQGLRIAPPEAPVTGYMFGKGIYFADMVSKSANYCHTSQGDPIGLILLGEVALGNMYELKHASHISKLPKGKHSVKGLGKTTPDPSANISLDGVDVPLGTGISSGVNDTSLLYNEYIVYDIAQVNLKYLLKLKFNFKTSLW
measuredMetric: IC50

What IC50 value was documented for this compound, C[C@@H]1CCCN1CCCOc1ccc(-c2ccc(=O)[nH]n2)cc1 ?
> 30 µM

###

Experiment: Ratio of drug uptake in brain to plasma of fasted Sprague-Dawley rat at 1 mg/kg, iv after 6 to 24 hrs by LC-MS/MS analysis
Format: ADME, organism-based
Design: dose 1 mg/kg, route intravenous
Details: read-out: BPR
List of Kp values.
Reply with just the number.

{"columns": ["compound", "measurement"],
 "data": [
  ["C[C@@H]1CCCN1CCCOc1ccc(-c2ccc(=O)[nH]n2)cc1.Cl [IRDABISANT HYDROCHLORIDE]", 2.6],
  ["CCn1nc(-c2ccc(OCCCN3CCC[C@H]3C)cc2)ccc1=O", 1.5]
]}

What Kp value was documented for this compound, CC(C)n1nc(-c2ccc(OCCCN3CCC[C@H]3C)cc2)ccc1=O ?
2.1

What Kp value was documented for this compound, C[C@@H]1CCCN1CCc1cc2cc(-c3ccc(C#N)cc3)ccc2o1 ?
32

What Kp value was documented for this compound, C[C@H]1CCCN1CCCOc1ccc(-c2ccc(=O)[nH]n2)cc1 ?
3.1

What Kp value was documented for this compound, Cn1nc(-c2ccc(OCCCN3CCCCC3)cc2)ccc1=O ?
5.3
